target: WDR5 (Homo sapiens (Human)); assay: Surface Plasmon Resonance (SPR) assay, KD and residence time; assay type: binding; conditions: surface plasmon resonance (SPR); read-out: WDR5 binding affinity (KD)
pKd: −log10 of the molar value.
Experimental Readout: pKd

{"Compound": "C[C@@H]1COCCN1c1ncc(-c2cc(NC(=O)c3c[nH]c(=O)cc3C(F)(F)F)c(N3C[C@@H](C)N(C)[C@@H](C)C3)cc2F)cn1", "Experimental Readout": "pKd", "Readout Value": 8.25}

1: COc1ccc(C(=O)N2CC=C(c3cc(NC(=O)c4c[nH]c(=O)cc4C(F)(F)F)c(N4C[C@@H](C)N(C)[C@@H](C)C4)cc3F)CC2)cc1
2: C[C@@H]1CN(c2cc(F)c(-c3nc(CN4CCOCC4)cs3)cc2NC(=O)c2cn(C)c(=O)cc2C(F)F)C[C@H](C)N1C
In: Which value of pKd is smaller, the one for 1 or the one for 2 ? Let me know the label of the one you choose.
Out: 2
(2: 8.17, 1: 9.03)

---

biological target: WDR5 (Homo sapiens (Human)); assay: Surface Plasmon Resonance (SPR) assay, KD and residence time; type: binding; details: surface plasmon resonance (SPR) assay; read-out: WDR5 binding affinity (KD)
Experimental Readout: Kd (nM)

{"Compound": "C[C@@H]1CN(c2cc(F)c(-c3ccc(OC(F)(F)F)cc3)cc2NC(=O)c2c[nH]c(=O)cc2C(F)(F)F)C[C@H](C)N1C", "Assay Target": "WDR5 (Homo sapiens (Human))", "Readout Value": 6.83}

A: C[C@@H]1CN(c2cc(F)c(C3=CCN(CC4CCOCC4)CC3)cc2NC(=O)c2c[nH]c(=O)cc2C(F)(F)F)C[C@H](C)N1C
B: Cc1ncc(C(=O)Nc2cc(-c3cnc(N4CCOCC4)nc3)c(F)cc2N2CCN(C)C(C)C2)s1 (stereo in doubt)
C: C[C@@H]1CN(c2cc(F)c(C3=CCN(C4CCN(C)CC4)CC3)cc2NC(=O)c2c[nH]c(=O)cc2C(F)(F)F)C[C@H](C)N1C
D: CC1CN(c2cc(F)c(-c3cnc(N4CCOCC4)nc3)cc2NC(=O)c2ccccc2)CCN1C (stereo in doubt)
In: Form: Sort by [Kd] Order [ ascending ] Rank them, then answer with their labels in that order.
Out: C, A, D, B

---

molecular target: WDR5 (Homo sapiens (Human), UniProt P61964); experiment: Surface Plasmon Resonance (SPR) assay, KD and residence time; type: binding; details: surface plasmon resonance (SPR); read-out: WDR5 binding affinity (KD)
Experimental Readout: Kd (nM)

1: C[C@@H]1CN(c2cc(F)c(-c3cnn(C)c3)cc2NC(=O)c2c[nH]c(=O)cc2C(F)(F)F)C[C@H](C)N1C
2: CC1CN(c2cc(F)c(-c3cccc(N4CCOCC4)n3)cc2NC(=O)c2ccc(F)cc2C(F)(F)F)CCN1C (stereo in doubt)
In: Which record would sort first by descending Kd, 1 or 2 ? Let me know the label of the one you choose.
Out: 2
(2: 3.18 nM, 1: 1.95 nM)

---

target: WDR5 (Homo sapiens (Human)); assay: Surface Plasmon Resonance (SPR) assay, KD and residence time; type: binding; settings: surface plasmon resonance (SPR) assay; read-out: WDR5 binding affinity (KD)
Experimental Readout: Kd (nM)

{"Compound": "C[C@@H]1CN(c2cc(F)c(-c3cnc(N4CCOCC4)nc3)cc2NC(=O)c2c(O)cnc3ccccc23)C[C@H](C)N1C", "Kd, nM": 1.98}
{"Compound": "C[C@@H]1CN(c2cc(F)c(-c3ccc(OCC4CC4)nc3)cc2NC(=O)c2ccc(F)cc2Cl)C[C@H](C)N1C", "Kd, nM": 15.6}
{"Compound": "C[C@@H]1CN(c2ncc(-c3cc(NC(=O)c4c[nH]c(=O)cc4C(F)(F)F)c(N4C[C@@H](C)N(C)[C@@H](C)C4)cc3F)cn2)CCO1", "Kd, nM": 0.788}
{"Compound": "C[C@@H]1CN(c2cc(F)c(-c3cncc(C(N)=O)c3)cc2NC(=O)c2c[nH]c(=O)cc2C(F)(F)F)C[C@H](C)N1C", "Kd, nM": 11.5}
{"Compound": "C[C@@H]1CN(c2cc(F)c(-c3cnc(N4CCOCC4)c(C#N)c3)cc2NC(=O)c2c[nH]c(=O)cc2C(F)(F)F)C[C@H](C)N1C", "Kd, nM": 1.17}

a: C[C@@H]1CN(c2cc(F)c(-c3ccc(N4CCOCC4)c(Cl)c3)cc2NC(=O)c2c[nH]c(=O)cc2C(F)(F)F)C[C@H](C)N1C
b: CC1CN(c2cc(F)c(-c3cnc(N4CCOCC4)nc3)cc2NC(=O)c2ccc(F)cc2C(F)(F)F)CCN1C (stereo in doubt) [Example 298]
In: Which value of Kd is smaller, the one for a or the one for b ? Let me know the label of the one you choose.
Out: a
(a: 1.34 nM, b: 4.22 nM)
